System: UACC-62 melanoma
Assay: NCI-60 one-dose screen, 48 h (100 = growth as untreated, 0 = no growth, -100 = all killed)
Details: 10 µM unless noted
Experimental: Growth inhibition of the UACC-62 human tumor cell line is measured as a screen for anti-cancer activity. Cells are grown in 96 well plates and exposed to the test compound for 48 hours. Compounds are tested at a single concentration, which is 10^-5 M for most compounds. The reported endpoint is percent growth (GI% or GIPRCNT), where numbers from 0 - 100% represent growth inhibition, and numbers from -100% - 0 represent cell death. For example, a value of 40 represents 60% growth inhibition. […]
About 83,000 compounds went through this panel and 20% of them were active in at least one assay; those are over-represented in the sample as a whole.
# Lookup of reported growth keyed by entry
EXPERIMENTAL READOUT: growth (%)

compound=COc1ccc(CCCc2c3[n+](cc4c(OC)c(OC)ccc24)CCc2cc4c(cc2-3)OCO4)cc1 units_label=% experimental_value=49.7
compound=COc1cccc(Nc2ncnn3ccc(CN4CC[C@@H](N)[C@H](O)C4)c23)c1 units_label=% experimental_value=93.4
compound=CNC(=O)c1cc(Oc2ccc3nc(NC(=O)Nc4ccc(Cl)c(C(F)(F)F)c4)sc3c2)ccn1 units_label=% experimental_value=8.48
compound=CCOC(=O)C1=C(C)N=C2Sc3cc(OC(F)(F)F)ccc3N2[C@H]1c1ccccn1 units_label=% experimental_value=28.3
compound=Cn1ccnc1C(=O)/C=C/c1ccc(CC(=O)Nc2ccc(Br)cc2)cc1 units_label=% experimental_value=33
compound=[2H]C1([2H])[C@H](C)O[C@H](C)C([2H])([2H])N1c1ccc(NC(=O)c2cccc(-c3ccc(OC(F)(F)F)cc3)c2C)cn1 units_label=% experimental_value=52.8
compound=NC1(C(=O)N[C@@H](CCO)c2ccc(Cl)cc2)CCN(c2ncnc3[nH]ccc23)CC1 units_label=% experimental_value=-15.6
compound=CC(C)c1ccc(/C=N/Nc2nc3ccccc3s2)cc1 units_label=% experimental_value=87
compound="CC(=Nc1ccccc1)C1=C(O)C(Cc2ccccc2)NC1=O (centres undefined)" units_label=% experimental_value=24.6
